This collection of values is drawn from paper PMC7080406.

target: MT1 (Homo sapiens, UniProt P48039); construct: expressed in transfected cells; host or cells: HEK293T (ATCC CRL-11268), transient transfection; test: [3H]melatonin competition radioligand binding, MT1 membranes; conditions: read-out: MT1 pKi ± SEM (converted)
Sequence (P48039 whole entry): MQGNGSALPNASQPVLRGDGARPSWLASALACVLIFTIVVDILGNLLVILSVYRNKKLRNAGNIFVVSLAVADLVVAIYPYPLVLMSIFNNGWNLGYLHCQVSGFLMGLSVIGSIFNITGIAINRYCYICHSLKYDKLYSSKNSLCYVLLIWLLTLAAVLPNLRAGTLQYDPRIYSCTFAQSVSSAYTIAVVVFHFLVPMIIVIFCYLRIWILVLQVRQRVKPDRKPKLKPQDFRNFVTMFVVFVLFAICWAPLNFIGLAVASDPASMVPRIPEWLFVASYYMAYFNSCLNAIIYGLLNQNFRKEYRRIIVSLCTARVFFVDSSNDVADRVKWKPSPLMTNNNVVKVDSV
# Ki annotations
ENDPOINT_NAME: Ki (µM)

COc1cccc(CNc2nc(C3CC3)no2)c1 : 8.51
NC(=O)c1cc(C(=O)c2ccccc2Cl)c[nH]1 : 26.3
COc1ccc2[nH]cc(CCNC(N)=O)c2c1 [Compound 28, [2-(5-methoxy-1H-indol-3-yl)ethyl]urea] : 0.0166
Nc1cc(=O)[nH]c(=S)n1CCc1ccccc1 : 47.9
